- METHOD_SUMMARY: Solubility of acetaminophen prodrugs in water
- Type: physicochemical
- STUDY_CONDITIONS: water, solvent water; read-out: Solubility
RESULT_TYPE: solubility (mg/mL)
Numbers only, in mg/mL.

Incoming: Give recorded solubility. CC(=O)Nc1ccc(OCOP(=O)(O)O)cc1
Outgoing: 145

---

- METHOD_SUMMARY: Solubility of acetaminophen prodrugs in water
- Format: physicochemical
- STUDY_CONDITIONS: water, room temperature; read-out: solubility in water at room temperature
For each of the compounds below, state its solubility.

CC(=O)Nc1ccc(O)cc1 [Acetaminophen, N-(4-hydroxyphenyl)acetamide] = ~13 mg/mL

Switching to the query record.
Incoming: Give recorded solubility. CC(=O)Nc1ccc(OCOP(=O)(O)O)cc1
Outgoing: ~145 mg/mL
